target: nucleocapsid protein of SARS-CoV-2 (SARS-CoV-2, UniProt P0DTC9 1-419)
Here, each record is paired with measured kon data.
metric: kon (M⁻¹ s⁻¹)

{"binder": "rabbit monoclonal antibody 5B12 against the SARS-CoV-2 nucleocapsid protein (antibody, V domains shown) VH: QSLEESGGDLVQPEGTLTLTCTASGFSFFYDYYMCWVRQAPGKGLEWIGCIYGASGDTYYASWAKGRFTISKTSSTTVTLRMTSLTAADTATYFCARDVDTGSGIDFELWGPGTLVTVSS VL: AYDMTQTPASVEVAVGGTVTIKCQASQSIGSYLSWYQQKPGQPPKLLIYSTSTLASGVPSRFKGSGSGTQFTLTISGVECADAATYYCQQGDTNHNIDNIFGGGTEVVVEG", "metric": "kon", "numeric_result": 44000}
{"binder": "rabbit monoclonal antibody 11B12 against the SARS-CoV-2 nucleocapsid protein (antibody, V domains shown) VH: QQQLEESGGGLVKPGGTLTLTCTVSGLSLSSNTLNWVRQAPGKGLEWIGTIFIDDEDTYYASWAKGRFTISKTSSTTITLKMTSLTAADTATYFCARSSDLWDPGTLVVVSS VL: AQVLTQTPSSVSAAVGGTVTINCQASQSVYKNNYLSWFQQKPGQPPKLLIYQASKLASGVSSRFKGSGSGTQFTLTISDVQCDDAATYFCLGSYDCRSANCIVFGGGTEVVVKG", "metric": "kon", "numeric_result": 465000}
{"binder": "rabbit monoclonal antibody 6H7 against the SARS-CoV-2 nucleocapsid protein (antibody, V domains shown) VH: QQQLEESGGGLVQPGGSLTLSCKASGFNVNSDCYMCWVRQAPGKGLEWIGCIDTVSGSTYYATWAKGRFTISKTSSTTVTLQMTSLTAADTATYFCARDFLYNVNNAGDIMDLWGPGTLVTVSL VL: AQVLTQTPSSVSAAVGGTVTINCQSSYNVYNNNYLAWYQQKPGQPPKLLIYTTSTLASGVPSRFSGSGSGTQFTLTISDLECDDAAIYYCQGYYRGPVNDFGGGTEVVVEG", "metric": "kon", "numeric_result": 354000}
{"binder": "rabbit monoclonal antibody 3A7 against the SARS-CoV-2 nucleocapsid protein (antibody, V domains shown) VH: QEQLEESGGGLVQPEGSLTLTCTASGFSLSDSAYMCWVRQAPGKGLEWIACIDAGVSGSTYYASWVNGRFTISKTSSTTVTLQMTSLTVADTATYFCARDFLYTPNNAGDIMDLWGPGTLVTVSL VL: AQVLTQTPSSVSAAVGGTVTINCQSSHTVYSNNYLSWYQQKPGQPPKLLIYSASSLASGVPSRFKGSGSGTQFTLTISDLECDDAAIYYCHGYWRGPVNDFGGGTEVVVEG", "metric": "kon", "numeric_result": 224000}
{"binder": "rabbit monoclonal antibody 5B4 against the SARS-CoV-2 nucleocapsid protein (antibody, V domains shown) VH: QSLEESGGGLVKPGGTLTLTCTVSGLSLSTNAPNWVRQAPGKGLEWIGTIFIDDEDTYYASWAKGRFTISKTSSTTITLKMTSLTAADTATYFCARNSDLWDPGTLVVVSS VL: AQVLTQTPSPVSAAVGGTVTINCQASQSVYNNNYLSWFQQKPGQPPKLLIYKASTLASGVSSRFKGSGSGTQFTLTISDVQCDDAATYFCLGSYDCRSANCIVFGGGTEVVVKG", "metric": "kon", "numeric_result": 364000}
